- target-entity: P2Y purinoceptor 14 (Homo sapiens)
- Sequence (Q15391 whole entry): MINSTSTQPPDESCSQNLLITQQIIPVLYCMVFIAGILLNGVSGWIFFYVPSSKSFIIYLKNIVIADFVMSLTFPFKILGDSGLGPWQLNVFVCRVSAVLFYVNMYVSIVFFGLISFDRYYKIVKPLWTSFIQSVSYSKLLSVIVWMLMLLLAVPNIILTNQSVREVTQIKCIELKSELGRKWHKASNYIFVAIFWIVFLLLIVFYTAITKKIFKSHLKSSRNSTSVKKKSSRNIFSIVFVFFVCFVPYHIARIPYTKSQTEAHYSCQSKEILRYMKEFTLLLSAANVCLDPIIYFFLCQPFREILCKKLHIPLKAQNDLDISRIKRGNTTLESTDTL
pIC50: −log10 of the molar value.

| structure-notation | target-entity | pIC50 |
| --- | --- | --- |
| NCCCNS(=O)(=O)c1ccc(-c2cc(C(=O)O)cc(-n3cc(-c4ccc(C(F)(F)F)cc4)nn3)c2)s1 | P2Y purinoceptor 14 (Homo sapiens) | 6.12 |
| NCCCNC(=O)c1ccc(-c2cc(-c3nnn[nH]3)cc(-n3cc(-c4ccc(C(F)(F)F)cc4)nn3)c2)s1 | P2Y purinoceptor 14 (Homo sapiens) | 5.92 |
| CCNC(=O)c1ccc(-c2cc(C(=O)O)cc(-n3cc(-c4ccc(C(F)(F)F)cc4)nn3)c2)cc1 | P2Y purinoceptor 14 (Homo sapiens) | 6.05 |
| FC(F)(F)c1ccc(-c2cn(-c3cc(Br)cc(-c4nnn[nH]4)c3)nn2)cc1 | P2Y purinoceptor 14 (Homo sapiens) | 4.48 |
| CCN(CC)CC.NC(=O)c1ccc(-c2cc(C(=O)O)cc(-n3cc(-c4ccc(C(F)(F)F)cc4)nn3)c2)cc1 | P2Y purinoceptor 14 (Homo sapiens) | 6.57 |
